- measured-target: the molecule itself
- method-summary: cryo-EM structure
parameter: stoichiometry N

Known results for proteins:
{"protein": "FlgC (natural protein, Salmonella enterica serovar Typhimurium, UniProt P0A1I7 1-134, looked up) MALLNIFDIAGSALAAQSKRLNVAASNLANADSVTGPDGQPYRAKQVVFQVDAAPGQATGGVKVASVIESQAPEKLVYEPGNPLADANGYVKMPNVDVVGEMVNTMSASRSYQANIEVLNTVKSMMLKTLTLGQ", "stoichiometry N": "6 copies"}
{"protein": "FlgB (natural protein, Salmonella enterica serovar Typhimurium, UniProt P16437 1-138, looked up) MLDRLDAALRFQQEALNLRAQRQEILAANIANADTPGYQARDIDFASELKKVMVRGREETGGVALTLTSSHHIPAQAVSSPAVDLLYRVPDQPSLDGNTVDMDRERTQFADNSLKYQMGLTVLGSQLKGMMNVLQGGN", "stoichiometry N": "5 copies"}
{"protein": "FlgF (natural protein, Salmonella enterica serovar Typhimurium, UniProt P16323 1-251, looked up) MDHAIYTAMGAASQTLNQQAVTASNLANASTPGFRAQLNALRAVPVDGLSLATRTLVTASTPGADMTPGQLDYTSRPLDVALQQDGWLVVQAADGAEGYTRNGNIQVGPTGQLTIQGHPVIGEGGPITVPEGSEITIAADGTISALNPGDPPNTVAPVGRLKLVKAEGNEVQRSDDGLFRLTAEAQAERGAVLAADPSIRIMSGVLEGSNVKPVEAMTDMIANARRFEMQMKVITSVDENEGRANQLLSMS", "stoichiometry N": "5 copies"}
{"protein": "FlgI (natural protein, Salmonella enterica serovar Typhimurium, UniProt P15930 20-365, looked up) ERIRDLTSVQGVRENSLIGYGLVVGLDGTGDQTTQTPFTTQTLNNMLSQLGITVPTGTNMQLKNVAAVMVTASYPPFARQGQTIDVVVSSMGNAKSLRGGTLLMTPLKGVDSQVYALAQGNILVGGAGASAGGSSVQVNQLNGGRITNGAIIERELPTQFGAGNTINLQLNDEDFTMAQQITDAINRARGYGSATALDARTVQVRVPSGNSSQVRFLADIQNMEVNVTPQDAKVVINSRTGSVVMNREVTLDSCAVAQGNLSVTVNRQLNVNQPNTPFGGGQTVVTPQTQIDLRQSGGSLQSVRSSANLNSVVRALNALGATPMDLMSILQSMQSAGCLRAKLEII", "stoichiometry N": "26 copies"}
{"protein": "FlgH (natural protein, Salmonella enterica serovar Typhimurium, UniProt P0A1N8 22-232, looked up, lipidated N-terminal Cys (3 lipid moieties; diacylglycerol attached to the sidechain)) CAWIPAKPLVQGATTAQPIPGPVPVANGSIFQSAQPINYGYQPLFEDRRPRNIGDTLTIVLQENVSASKSSSANASRDGKTSFGFDTVPRYLQGLFGNSRADMEASGGNSFNGKGGANASNTFSGTLTVTVDQVLANGNLHVVGEKQIAINQGTEFIRFSGVVNPRTISGSNSVPSTQVADARIEYVGNGYINEAQNMGWLQRFFLNLSPM", "stoichiometry N": "26 copies"}
{"protein": "FlgD (natural protein, Salmonella enterica serovar Typhimurium, UniProt P0A1I9 1-232, looked up) MSIAVNMNDPTNTGVKTTTGSGSMTGSNAADLQSSFLTLLVAQLKNQDPTNPLQNNELTTQLAQISTVSGIEKLNTTLGAISGQIDNSQSLQATTLIGHGVMVPGTTILAGKGAEEGAVTSTTPFGVELQQPADKVTATITDKDGRVVRTLEIGELRAGVHTFTWDGKQTDGTTVPNGSYNIAITASNGGTQLVAQPLQFALVQGVTKGSNGNLLDLGTYGTTTLDEVRQII", "stoichiometry N": 5}

IN: Fill in the blank: the reported stoichiometry N of FlgG (natural protein, Salmonella enterica serovar Typhimurium, UniProt P0A1J3 1-260, looked up) MISSLWIAKTGLDAQQTNMDVIANNLANVSTNGFKRQRAVFEDLLYQTIRQPGAQSSEQTTLPSGLQIGTGVRPVATERLHSQGNLSQTNNSKDVAIKGQGFFQVMLPDGTSAYTRDGSFQVDQNGQLVTAGGFQVQPAITIPANALSITIGRDGVVSVTQQGQAAPVQVGQLNLTTFMNDTGLESIGENLYIETQSSGAPNESTPGLNGAGLLYQGYVETSNVNVAEELVNMIQVQRAYEINSKAVSTTDQMLQKLTQL is ____.
OUT: 24 copies

Where do the numbers come from? From paper PMC7610862.
